- Test system: Trichophyton benhamiae
- test-details: Tested in vitro for minimum inhibitory concentration against Trichophyton mentagrophytes
- Assay type: functional, Arthroderma benhamiae
# strict inequality: MIC < 10 ng/mL yields rule met, everything else yields rule not met

Q: Is MIC of CN(C/C=C/C#CC(C)(C)C)Cc1cccc2c(Cl)csc12 strictly below 10 ng/mL?
A: rule met

Q: is_below(MIC, 10 ng/mL) for CN(C/C=C/C#CC(C)(C)C)Cc1ccc(C#N)c2ccccc12 ?
A: rule not met

Q: Field: below-cutoff. Rule: recorded MIC strictly less than 10 ng/mL. Subject: Cc1cccc2c(CN(C)C/C=C/C#CC(C)(C)C)cccc12
A: rule met

Q: hey, is MIC for CN(C/C=C/C#CC(C)(C)C)Cc1cccc2ccccc12 lower than 10 ng/mL or not?
A: rule met

Q: Dear colleague, could you confirm whether MIC of CN(C/C=C/C#CC(C)(C)C)Cc1cccc2cc(F)ccc12 falls below 10 ng/mL? Thanks.
A: rule met

Q: Is 10 ng/mL strictly greater than the compound's reported MIC? compound: CN(C/C=C/C#CC(C)(C)C)Cc1cccc2ccc(F)cc12
A: rule met

Q: I wonder whether CN(C/C=C/C#CC(C)(C)C)Cc1cccc2c(Br)cccc12 has MIC below 10 ng/mL. Can you tell?
A: rule met

Q: Consider the compound CN(C/C=C/C#CC(C)(C)C)Cc1cccc2ccc(Cl)cc12 . Is its MIC strictly less than 10 ng/mL?
A: rule not met

Q: Consider the compound CN(C/C=C/C#CC(C)(C)C)Cc1cccc2c(F)cc(F)cc12 . Is its MIC strictly less than 10 ng/mL?
A: rule met

Q: Is MIC strictly under 10 ng/mL for the entry CN(C/C=C/C#CC(C)(C)C)Cc1cccc2c(Cl)cccc12 ?
A: rule met

Q: Consider the compound Cc1ccc(CN(C)C/C=C/C#CC(C)(C)C)c2ccccc12 . Is its MIC strictly less than 10 ng/mL?
A: rule not met

Q: Identify whether the compound CN(C/C=C/C#CC(C)(C)C)Cc1cccc2c(C#N)cccc12 records MIC below 10 ng/mL.
A: rule not met

Q: Lab note: MIC threshold 10 ng/mL. Does this compound come in strictly under it? CN(C/C=C/C#CC(C)(C)C)Cc1cc(F)cc2ccccc12
A: rule met

Q: Is MIC strictly under 10 ng/mL for the entry CN(C/C=C/C#CC(C)(C)C)Cc1cc(C#N)cc2ccccc12 ?
A: rule not met

Q: Quick check: does CN(C/C=C/C#CC(C)(C)C)Cc1cccc2c(F)cccc12 have MIC under 10 ng/mL?
A: rule met
